Tested on: Artemia salina
Assay: whole plant or invertebrate
Assay type: in vivo
Settings: 30 µM, 24 h
Protocol: Brine shrimp A. salina is an important model organism for ecosystems, and because of its high sensitivity and easy availability, it can be used in laboratory settings to study toxic effects and to provide safe results. […] The survival rate of A. salina was calculated after 24 h treatment at 25 °C. Commercially available Artemia salina (A. salina) or brine shrimp cysts were purchased and cultivated in 3.2% of saline water. […] After 24 h in 25 °C, the percent of survival of A. salina was calculated. […]
Classification field: enter satisfied for Percentage of Survival of Artemia salina after 24 h values not below 80%, not satisfied for values below it.

Data request: Quick check, Percentage of Survival of Artemia salina after 24 h >= 80%? CO[C@@H](CC[C@H](C)[C@H]1O[C@]23C[C@H](OC(=O)C[C@H]([C@@H](C)O)OC(=O)[C@H](O)C(=C(C)CC2(C)C)O3)[C@@H]1C)c1cccc(O)c1
Data returned: satisfied

Data request: Hi team, for CO[C@@H](CC[C@H](C)[C@H]1O[C@@]23C[C@H](OC(=O)C[C@H]([C@@H](C)O)OC(=O)C[C@](O)(O2)[C@H](C)CC3(C)C)[C@@H]1C)c1cccc(O)c1 , is the recorded Percentage of Survival of Artemia salina after 24 h at or above 80%?
Data returned: not satisfied

Data request: Could you tell me if the measured Percentage of Survival of Artemia salina after 24 h of CO[C@@H](CC[C@H](C)[C@H]1O[C@@]23C[C@H](OC(=O)C[C@H]([C@@H](C)O)OC(=O)C[C@](O)(O2)[C@@](C)(O)CC3(C)C)[C@@H]1C)c1cccc(O)c1 reaches 80% or more?
Data returned: not satisfied

Data request: Has CO[C@@H](CC[C@H](C)[C@H]1O[C@@]23C[C@H](OC(=O)C[C@H]([C@@H](C)O)OC(=O)/C=C(\O2)C(C)=CC3(C)C)[C@@H]1C)c1cccc(O)c1 a recorded Percentage of Survival of Artemia salina after 24 h greater than or equal to 80%?
Data returned: satisfied

Data request: Dear colleague, could you confirm whether ClCCl [Methylenechloride, dichloromethane, reference compound] has Percentage of Survival of Artemia salina after 24 h at or above 80%?
Data returned: not satisfied
